Data origin: patent US5763430A

System: S. aureus
ASSAY METHOD TEXT: antibiotic activity (MIC)
Assay type: cell-based
SETTINGS: Staphylococcus aureus; S. aureus; read-out: MIC
ENDPOINT LABEL: MIC (µg/mL)
State just the number; it will be interpreted in µg/mL.

COC(=O)CC[C@@H](C)[C@H]1CC[C@H]2[C@@H]3C[C@@H](O)[C@H]4C[C@@H](NCCN)CC[C@]4(C)[C@H]3CC[C@]12C [Compound 432] = 1
COC(=O)CC[C@@H](C)[C@H]1CC[C@H]2[C@@H]3[C@H](O)C[C@H]4C[C@H](NCCCNCCCCN)CC[C@]4(C)[C@H]3CC[C@]12C [Compound 394] = 4
C[C@H](CCC(=O)O)[C@H]1CC[C@H]2[C@@H]3[C@H](O)C[C@H]4C[C@@H](NCCCNCCCCNCCCN)CC[C@]4(C)[C@H]3CC[C@]12C [Compound 397] = 16
COC(=O)CC[C@@H](C)[C@H]1CC[C@H]2[C@@H]3C[C@@H](O)[C@H]4C[C@H](NCCN)CC[C@]4(C)[C@H]3CC[C@]12C [Compound 431] = 16
COC(=O)CC[C@@H](C)[C@H]1CC[C@H]2[C@@H]3[C@H](O)C[C@H]4CC(NCCCNCCCCNCCCN)CC[C@]4(C)[C@H]3CC[C@]12C (stereo partly shown) [Compound 395] = 4

(Q) Requested field: MIC. Item: COC(=O)CC[C@@H](C)[C@H]1CC[C@H]2[C@@H]3[C@H](O)C[C@@H]4C[C@H](NCCCNCCCCN)CC[C@]4(C)[C@H]3CC[C@]12C [Compound 356]
(A) 4

(Q) Using the record for CC(C)CCC[C@@H](C)[C@H]1CC[C@H]2[C@@H]3[C@H](O)C[C@H]4C[C@@H](NCCCNCCCCN)CC[C@]4(C)[C@H]3CC[C@]12C [Compound 371] , report its MIC.
(A) 4

(Q) Which MIC is reported for this compound? C[C@H](CCC(=O)O)[C@H]1CC[C@H]2[C@@H]3[C@H](O)C[C@H]4C[C@H](NCCCNCCCCN)CC[C@]4(C)[C@H]3CC[C@]12C [Compound 382]
(A) 16

(Q) Please give the measured MIC for this compound: CC(COS(=O)(=O)O)C(=O)CC[C@@H](C)[C@H]1CC[C@H]2[C@@H]3[C@H](O)C[C@H]4C[C@@H](NCCCNCCCCN)CC[C@]4(C)[C@H]3CC[C@]12C (single isomer, unassigned) [Compound 1360]
(A) 8

(Q) Fill blank: measured MIC of the compound C[C@H](CCC(=O)O)[C@H]1CC[C@H]2[C@@H]3[C@H](O)C[C@@H]4C[C@H](NCCN)CC[C@]4(C)[C@H]3CC[C@]12C [Compound 414] is ____.
(A) 32

(Q) Suppose we examine the compound C=C(C)C(=O)CC[C@@H](C)[C@H]1CC[C@H]2[C@@H]3[C@H](O)C[C@H]4C[C@@H](NCCCNCCCCN)CC[C@]4(C)[C@H]3CC[C@]12C [Compound 1361] ; what MIC value has been reported?
(A) 4

(Q) // returns reported MIC for input CC(C)CCC[C@@H](C)[C@H]1CC[C@H]2[C@@H]3[C@H](O)C[C@H]4C[C@H](N)CC[C@]4(C)[C@H]3CC[C@]12C [Compound 1363]
(A) 2

(Q) # lookup: MIC of C[C@H](CCC(=O)O)[C@H]1CC[C@H]2[C@@H]3[C@H](O)C[C@H]4C[C@@H](NCCCNCCCCN)CC[C@]4(C)[C@H]3CC[C@]12C [Compound 381]
(A) 32

(Q) Bench note: what MIC did COC(=O)CC[C@@H](C)[C@H]1CC[C@H]2[C@@H]3[C@H](O)C[C@@H]4C[C@@H](NCCCNCCCCN)CC[C@]4(C)[C@H]3CC[C@]12C [Compound 355] show?
(A) 64

(Q) Consider the compound C[C@H](CCC(=O)O)[C@H]1CC[C@H]2[C@@H]3[C@H](O)C[C@@H]4C[C@@H](NCCCNCCCCNCCCN)CC[C@]4(C)[C@H]3CC[C@]12C [Compound 413] and give its measured MIC.
(A) 8

(Q) Requested field: MIC. Item: COC(=O)CC[C@@H](C)[C@H]1CC[C@H]2[C@@H]3[C@H](O)C[C@@H]4C[C@H](NCCN)CC[C@]4(C)[C@H]3CC[C@]12C [Compound 410]
(A) 16

(Q) Find the recorded MIC belonging to COC(=O)CC[C@@H](C)[C@H]1CC[C@H]2[C@@H]3CC[C@@H]4C[C@H](NCCN)CC[C@]4(C)[C@H]3C[C@H](O)[C@]12C [Compound 416] and report it.
(A) 8
